# target.or.test.system: T1, His-tagged HM1.24 antigen, residues N49-A163 of the extracellular domain (human, UniProt Q10589 49-163)
# T1 sequence: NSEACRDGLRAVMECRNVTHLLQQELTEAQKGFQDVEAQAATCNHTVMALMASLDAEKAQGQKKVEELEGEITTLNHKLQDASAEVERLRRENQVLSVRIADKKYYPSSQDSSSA
readout: binding result

# binder, endpoint.result
measured = [
    ("HM1.24_H1.4 heavy chain variant with HM1.24_L4 light chain (antibody, human IgG1, kappa, V domains shown) VH: QVQLVQSGAEVKKPGASVKVSCKASGYTFTPYWMQWVRQAPGQGLEWMGSIFPGDADTRYSQSFQGQVTISADKSISTAYMELSRLRSDDTAVYYCARGLRRGGYYFDYWGQGTLVTVSS VL: DIVMTQSPLSLPVTLGQPASISCKASQDVNTAVAWYLQKPGKSPKLLIYSASNRYTGVPDRITGSGSGTDFTLKISRVEAEDVGVYYCQQHYSTPFTFGSGTKLEIKR", "binds"),
    ("HM1.24_H1.1 heavy chain variant with HM1.24_L4 light chain (antibody, human IgG1, kappa, V domains shown) VH: QVQLVQSGAEVKKPGASVKVSCKASGYTFTPYWMQWVRQAPGQGLEWMGSIFPGEGDTRYSQSFQGQVTISADKSISTAYMELSRLRSDDTAVYYCARGLRRGGYYFDYWGQGTLVTVSS VL: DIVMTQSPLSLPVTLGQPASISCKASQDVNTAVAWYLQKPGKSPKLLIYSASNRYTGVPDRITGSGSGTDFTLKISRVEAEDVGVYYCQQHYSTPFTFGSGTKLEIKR", "binds"),
    ("HM1.24_H2.4 heavy chain variant with HM1.24_L4 light chain (antibody, human IgG1, kappa, V domains shown) VH: EVQLVESGGGLVKPGGSLRLSCAASGYTFTPYWMQWVRQAPGKGLEWMGSIFPGDADTRYSQSFQGQVTISADKSISTAYMELSSLRSEDTAVYYCARGLRRGGYYFDYWGQGTLVTVSS VL: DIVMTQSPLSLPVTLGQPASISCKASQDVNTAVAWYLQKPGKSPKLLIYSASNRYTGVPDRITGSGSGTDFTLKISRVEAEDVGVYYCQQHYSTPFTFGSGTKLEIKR", "binds"),
    ("HM1.24_H1.2 heavy chain variant with HM1.24_L4 light chain (antibody, human IgG1, kappa, V domains shown) VH: QVQLVQSGAEVKKPGASVKVSCKASGYTFTPYWMQWVRQAPGQGLEWMGSIFPGSGDTRYSQSFQGQVTISADKSISTAYMELSRLRSDDTAVYYCARGLRRGGYYFDYWGQGTLVTVSS VL: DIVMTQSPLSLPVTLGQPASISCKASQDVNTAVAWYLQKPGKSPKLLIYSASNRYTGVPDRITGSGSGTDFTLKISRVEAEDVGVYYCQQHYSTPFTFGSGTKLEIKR", "binds"),
    ("HM1.24_H2.3 heavy chain variant with HM1.24_L4 light chain (antibody, human IgG1, kappa, V domains shown) VH: EVQLVESGGGLVKPGGSLRLSCAASGYTFTPYWMQWVRQAPGKGLEWMGSIFPGDSDTRYSQSFQGQVTISADKSISTAYMELSSLRSEDTAVYYCARGLRRGGYYFDYWGQGTLVTVSS VL: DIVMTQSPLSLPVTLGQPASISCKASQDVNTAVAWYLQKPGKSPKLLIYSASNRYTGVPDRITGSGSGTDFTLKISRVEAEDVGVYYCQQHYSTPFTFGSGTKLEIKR", "binds"),
    ("HM1.24_H1.3 heavy chain variant with HM1.24_L4 light chain (antibody, human IgG1, kappa, V domains shown) VH: QVQLVQSGAEVKKPGASVKVSCKASGYTFTPYWMQWVRQAPGQGLEWMGSIFPGDSDTRYSQSFQGQVTISADKSISTAYMELSRLRSDDTAVYYCARGLRRGGYYFDYWGQGTLVTVSS VL: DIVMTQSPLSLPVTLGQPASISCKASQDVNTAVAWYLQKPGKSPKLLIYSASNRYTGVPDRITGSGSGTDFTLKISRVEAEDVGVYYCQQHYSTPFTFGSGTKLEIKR", "binds"),
]

Q) Recorded binding result for HM1.24_H2.1 heavy chain variant with HM1.24_L4 light chain (antibody, human IgG1, kappa, V domains shown) VH: EVQLVESGGGLVKPGGSLRLSCAASGYTFTPYWMQWVRQAPGKGLEWMGSIFPGEGDTRYSQSFQGQVTISADKSISTAYMELSSLRSEDTAVYYCARGLRRGGYYFDYWGQGTLVTVSS VL: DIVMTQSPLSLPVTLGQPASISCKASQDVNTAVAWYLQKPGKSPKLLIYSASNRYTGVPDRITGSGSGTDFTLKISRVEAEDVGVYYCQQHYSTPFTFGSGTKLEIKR , please?
A) binds
